target_or_test_system: Intestinal-type alkaline phosphatase (Mus musculus)
Sequence (P24822 whole entry): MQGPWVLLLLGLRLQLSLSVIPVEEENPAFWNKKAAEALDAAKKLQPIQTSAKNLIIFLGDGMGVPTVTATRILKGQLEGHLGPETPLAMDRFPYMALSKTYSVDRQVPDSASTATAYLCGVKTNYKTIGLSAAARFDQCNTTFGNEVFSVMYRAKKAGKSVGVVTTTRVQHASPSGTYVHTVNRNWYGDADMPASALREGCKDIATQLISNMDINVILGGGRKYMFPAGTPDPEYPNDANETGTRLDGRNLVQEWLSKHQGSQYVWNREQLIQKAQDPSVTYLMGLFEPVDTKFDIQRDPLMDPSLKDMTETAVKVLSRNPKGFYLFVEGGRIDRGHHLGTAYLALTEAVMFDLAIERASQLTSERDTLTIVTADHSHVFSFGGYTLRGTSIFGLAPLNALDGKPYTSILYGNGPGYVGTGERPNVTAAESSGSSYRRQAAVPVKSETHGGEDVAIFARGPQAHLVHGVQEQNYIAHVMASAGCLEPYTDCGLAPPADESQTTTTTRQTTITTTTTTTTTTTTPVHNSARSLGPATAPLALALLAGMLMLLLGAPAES
measurement_protocol: PubChem AID 488785
Type: functional
Activity calls are given as the source filed them. The rule behind the calls is not given here.
Measured IC50 accompanies every entry in the list below.
value_kind: IC50

# record_smiles, reported
data = [
    ("Cn1nc([N+](=O)[O-])nc1S(C)(=O)=O", "5.66 µM (active)"),
    ("O=C1/C(=C\\c2cccc(O)c2O)SC(=S)N1Cc1ccccc1", "3.23 µM (active)"),
    ("O=C(CN1CCN(c2ccccc2F)CC1)c1ccc(O)c(O)c1", "1.63 µM (active)"),
    ("C[C@@H]1O[C@@H](O[C@H]2[C@H](O)[C@@H](O)[C@H](Oc3c(-c4ccc(O)c(O)c4)oc4cc(O)cc(O)c4c3=O)O[C@@H]2CO)[C@H](O)[C@H](O)[C@H]1O", "5.66 µM (active)"),
]
